Tested on: MS2 coat protein
Assay: apparent KD of MS2 coat protein; higher = weaker reporter binding
Details: Eterna round: R107; input ligand: theophylline 20 uM
Give y when the value for apparent KD of MS2 coat protein is at least 50 nM. Give n when it is less.

Hi team, for UCACGACGCAUGGAUACCAGCGACAUGAGGAUCACCCAUGUAUGAGGAUCAGCCAUGUUAUGCCCUUGGCAGCCACGAAGGUCAU [KNKMULLIN] , is the recorded apparent KD of MS2 coat protein at or above 50 nM?
n

Quick check: does AGGAAUGUCACGGCCGCCACUGACGCUAAAAUGGGCUCGAGCCGACAUGAGGAUCACCCAUGUUCCAGGACCGGGUGAAUCCUGG [theeternabot_sameState_MS2_Trp_B_40] have apparent KD of MS2 coat protein greater than or equal to 50 nM?
y

Please tell me: is the sequence GAAGGAGAACUCAUGACUCCUUCCCUGGAAGGAGCGAGCGAAAGCUCAGGUAGGUCGCCAGAAACAUGAGGAUCACCCAUGUAAU [(A)''-(M)'-(A)'-(Arg1)-(Arg2)-(M1)-(M2)_Design4] at or over 50 nM in terms of apparent KD of MS2 coat protein?
n

Could you please find out whether GAGGGUGAGCCUCUGGUCCGUUUGACGGAUACCAGCGAGAGGUCUCGCCCUUGGCAGCCGACGACAUGAGGAUCACCCAUGUUAA [#09 Exclusion-TheophyllineA] has apparent KD of MS2 coat protein that meets 50 nM or exceeds it?
n

Reported apparent KD of MS2 coat protein at or above 50 nM? UAAAACAUGAGGAUCACCCAUGUAUUGAGUCGAGGACCGGUACGGCCGCCACUCGGCAAUAAUAACGACGCAUAGCAUGUAGGAA [theeternabot_sameState_MS2_Trp_A_41]
n

Please check the record CCUCGACAUGAGGAUCACCCAUGUAGAGAUACCAGCCUGUGAGAUGGCCCUUGGCAGCUCAUAUAGGGUACAGGAGUCGUUUUGA [Qugetila] and state if its apparent KD of MS2 coat protein is at or above 50 nM.
y

Could you verify whether the entry UUGGUACAUGAGGAUCACCCAUGUACUGAAGGAGCGGGACGAAUCUCAGGUAGGUCGCAGACAUGAGGAUCACCCAUGUAUUGGU [Exclusion Arginine A GF 16] shows apparent KD of MS2 coat protein of no less than 50 nM?
n

Does the sequence AGGGACAUGAGGAUCACCCAUGUUGAAACUCGAGGACCGGUACGGCCGCCACUCGUAUAAUCGAUGUCCAUUUGGGAUUCCGGCU [theeternabot_sameState_MS2_Trp_A_17] have recorded apparent KD of MS2 coat protein that is 50 nM or more?
n

Has CGGACAUGAGGAUCACCCAUGUACACUGAAGGAGCGUCGAGAACGACAGGUAGGUCGCAGGCUAAGGAAGGUGAUGCUCAAGAAG [Exclusion Arginine A GF5] a recorded apparent KD of MS2 coat protein greater than or equal to 50 nM?
n

In plain terms: is recorded apparent KD of MS2 coat protein at least 50 nM for UCUACAUGAGGAUCACCCAUGUGCCAUGAUACCAGACAUGAAAAUGUCCCUUGGCAGCGUGGGUAGCGCAUCCGAAAGGAUGCGC [#08 SameState-TheophyllineA] ?
y

----------
Tested on: MS2 coat protein
Assay: apparent KD of MS2 coat protein; designed switch direction (-1 OFF switch, 1 ON switch): -1; higher = weaker reporter binding
Conditions: Eterna round: R95; input ligand: microRNA oligo, concentration not stated
Threshold check on apparent KD of MS2 coat protein: at or above 30 nM gives criterion met, strictly below gives criterion not met.

{"Sequence Chain": "GUUAAACAUGAGGAUCACCCAUGUAAGGAUAUGCUGAGGUAGAGAUGAAGUGAAUGAAGCAGAAGGUACAAUUG [Mat - Mod of JL D55] (puzzle: Exclusion 1)", "Discrete Label": "criterion met"}
{"Sequence Chain": "UCGGUGACAGGAUAUACAUGAGGAUCACCCAUGUUAAGAAGAGAAAGGGCAGGAAGAGGUAGAAGGGUCGCUGU [JL JR_Exclu3_Sub033 mod] (puzzle: Exclusion 3)", "Discrete Label": "criterion met"}
{"Sequence Chain": "AAAUAUAAGCAAAGAUCCUACAUGAGGAUCACCCAUGUGCUCGUCUUAUAAAGUACUAUCACGAAAGUGAUAGUACA [Sensor 3, v1 - 19] (puzzle: Sensor v3, turn-off variant 1)", "Discrete Label": "criterion met"}
{"Sequence Chain": "CAUGUCUGAGGAUAUCGUUUUUUGUACAUGAGGAUCACCCAUGUCCUAUUUUUUAUAUUACGAGAAGGCAGUGGAU [JR_E5_Sub091] (puzzle: Exclusion 5)", "Discrete Label": "criterion met"}

Lab note: next sequence to report on.
Hi team, for GGUGGACAUGAGGAUCACCCAUGUGAGGAUAUCGGCCGGUUCGCGGUGGCUGGCGUCUCGAGAAGGCGCAUAGU [Exclusion 1 V71] (puzzle: Exclusion 1) , is the recorded apparent KD of MS2 coat protein at or above 30 nM?
criterion not met

----------
Test system: MS2 coat protein
Assay: apparent KD of MS2 coat protein; designed switch direction (-1 OFF switch, 1 ON switch): 1; higher = weaker reporter binding
Settings: input ligand: none
Given measured apparent KD of MS2 coat protein, output class 1 if it is greater than or equal to 100 nM and class 0 if not.

Use the examples below as a reference point.
{"Sequence Chain": "GGUAAGAAUUAAGGAUAUUGAAUACAUAUGUUUAACAUGAGGAUCACCCAUGUGGGUUGCGGUGUCGAGAAGGUAAAUUAAUAG [Mat - same State NG 2 - JL mod - D100] (Eterna round: R96, puzzle: Same State NG 2)", "Discrete Label": "class 1"}
{"Sequence Chain": "CCGUAGAUGGAAGGAUAUGGAGCCUUAUUGGCUCCAGAAGGUUCAAUACAUGAGGAUCACCCAUGUUCGGCGGUCAAUAGACCG [Eli NG1ss - 81] (Eterna round: R96, puzzle: Same State NG 1)", "Discrete Label": "class 0"}

Is apparent KD of MS2 coat protein at least 100 nM? Consider GUGGUCAGACAUGAGGAUCACCCAUGUGGAAUAAAUAACGGACAGGAUAUAAAAUAUAGGAUAUAUUAGAAGGGUUGAUUGGUG (Eterna round: R96, puzzle: Same State NG 3)
class 0

Given the entry UUGAAGAAUUAAGGAUAUUGAAUACAUAUGUUUAACAUGAGGAUCACCCAUGUGGGUUGCGGUAUCGAGAAGGUAAAUUACUAG [JL SSNG2 1.49] (Eterna round: R96, puzzle: Same State NG 2) , answer whether its apparent KD of MS2 coat protein meets or surpasses 100 nM.
class 1

Is reported apparent KD of MS2 coat protein greater than or equal to 100 nM here: AUUACUAACAUAGGAUAUCAUGCGAAAAUUGCGUGAGAAGGGUGGACACUGUCUUUCUCGGAGUACAUGAGGAUCACCCAUGUG [SameState NG1 #68] (Eterna round: R96, puzzle: Same State NG 1)
class 1

Is the recorded value of apparent KD of MS2 coat protein equal to or greater than 100 nM for this sequence? AGACACAUGAGGAUCACCCAUGUUACGAGCUUAGCUCGGACACAGGAUAUCCGGUCCUAGAGACCGGAGAAGGGUGGCUGAAAA [Zara MOD2] (Eterna round: R96, puzzle: Same State NG 3)
class 1

Decide: is the reported value of apparent KD of MS2 coat protein for UGGCUCAGACUAGGAUAUAUGUGGUCACAUGAGGAUCACCCAUGUCUCGAGCUUCGGCUCGAGGCAUAGAAGGAGUCUGAGCCU [SSNG2/5-D3] (Eterna round: R96, puzzle: Same State NG 2) equal to or greater than 100 nM?
class 0

Hello, I need to know if GGAGCCGAUACUGAGGAUAUUCAUAUUAAAACAUGAGGAUCACCCAUGUAGGCCAGAAGGCCUUGGGAGAAGGCAGAUCGGCUCC [Biseusra - 4] (Eterna round: R96, puzzle: Same State 2) has measured apparent KD of MS2 coat protein not below 100 nM. Thanks!
class 1

Hi team, for GUCGGUCUGUCGUGCUGUGGUGAUAGUUAACAUGAGGAUCACCCAUGUUGCUUUCGGGUCGUUGGGAGUUUUUUUCG [Modxample 121 - Jieux - Sensor for bsa-mir-208a] (Eterna round: R96, puzzle: Sensor for hsa-mir-208a) , is the recorded apparent KD of MS2 coat protein at or above 100 nM?
class 0

----------
Test system: MS2 coat protein
Test: apparent KD of MS2 coat protein; designed switch direction (-1 OFF switch, 1 ON switch): -1; higher = weaker reporter binding
Conditions: input ligand: microRNA oligo, concentration not stated
Tag: yes if measured apparent KD of MS2 coat protein is not below 300 nM, no if it is.

Solved cases (5 shown):
{"Sequence Chain": "CCGGCGUGGUGCGGUUGUCGUUCGACAUGAGGAUCACCCAUGUAGGAUAUGCGCGUGGUCGCGCCGCAGAAGGGCAUCGUUUGG [Random, 15% A] (Eterna round: R96, puzzle: Exclusion NG 3)", "Discrete Label": "no"}
{"Sequence Chain": "ACAUGUAAUGCAGGAUAUCGGACACAUGAGGAUCACCCAUGUGACCAGAGGAAUUGCUAAGAGUCUGAGAAGGGUAUGUACAUG [Ex NG2 #52] (Eterna round: R96, puzzle: Exclusion NG 2)", "Discrete Label": "no"}
{"Sequence Chain": "UGUUGUUACGUAGGAUAUCCACCAACAGGUGGAAGGAUAUGGAAACAGAAGGUUCGCCAACAGGCGGAGAAGGACGUGUUAACU [pwkr exNG2 2xF7 2xFMN.23] (Eterna round: R96, puzzle: Exclusion NG 2)", "Discrete Label": "yes"}
{"Sequence Chain": "UGUACUAUGCGAGCUGACUUGCGUAGUGCAGCAGGUGAAACAUGAGGAUCACCCAUGUCCUCAUUUGCUCGUCUUAU [SL-sv3-2.02 JL mod] (Eterna round: R96, puzzle: Sensor v3, turn-off variant 2)", "Discrete Label": "yes"}
{"Sequence Chain": "ACAUGAGGAUCACCCAUGUAAUCAUGAUGGCUGAUGUAGAGUCAGGAUAUGUGUGGCUUUCUAUCACAGAAGGGACAAGACUGG [Deportation 36 - Jieux - Exclusion NG 3] (Eterna round: R96, puzzle: Exclusion NG 3)", "Discrete Label": "no"}

Has UAAGCUCUGUCAGGAUAUCCCUGUAAACGCAACGGAGAAGGGACAUGAGGAUCACCCAUGUGCGGGCCCAACGCGCUCGGGUCC [Dilacesole] (Eterna round: R96, puzzle: Exclusion NG 1) a recorded apparent KD of MS2 coat protein greater than or equal to 300 nM?
no

Reported apparent KD of MS2 coat protein reaches at least 300 nM for CUGUUUUUCGCAGGAUAUGCUCCUCCUUUAUUUGCAGAAGGGCGUUAAACAUGAGGAUCACCCAUGUAUGGUAAUGACAUUUUC [JR_ExcNG1_Sub063] (Eterna round: R96, puzzle: Exclusion NG 1) ?
no

Determine whether measured apparent KD of MS2 coat protein meets or exceeds 300 nM for GUGGUUUGUGUAGGAUAUUCGUUUGUGCGGUGCGGAGAAGGACAUGAGGAUCACCCAUGUGUGCGAGGAUCACCCGUGUGUUGU [double 2 (less A)] (Eterna round: R96, puzzle: Exclusion NG 1)
no

# bool: apparent KD of MS2 coat protein of GCACGGAGUGUAGGAUAUCUGUGCGAUUAGCUCAGAGAAGGACAUGAGGAUCACCCAUGUGUGUUCCAAUAAUAAAAUCCGUGC [Eli exng1 - 063] (Eterna round: R96, puzzle: Exclusion NG 1) >= 300 nM
no
